- Test system: Bacillus subtilis
- Experiment Notes: Antibacterial activity against Bacillus subtilis assessed as growth inhibition at 25 ug/well after 24 hrs by agar well diffusion method
- Assay type: functional
- Recorded Conditions: read-out: DIZ
Threshold check on zone of inhibition at 25 µg/disc: at or above 10 mm gives True, strictly below gives False.

Cc1ccc(-c2csc(Nc3cc(-c4ccc(C)cc4)n(-c4nc(-c5ccc(C)cc5)cs4)n3)n2)cc1 : True
NC(=S)n1nc(Nc2nc(-c3ccccc3)cs2)cc1-c1ccccc1 : True
NC(=S)n1nc(Nc2nc(-c3ccc(Cl)cc3)c[nH]2)cc1-c1ccc(Cl)cc1 : True
Cc1ccc(-c2c[nH]c(Nc3cc(-c4ccc(C)cc4)n(-c4nc(-c5ccc(C)cc5)cs4)n3)n2)cc1 : True
NC(=S)n1nc(Nc2nc(-c3ccccc3)co2)cc1-c1ccccc1 : False

meta.source: ChEMBL document CHEMBL3286292
